Molecular target: Estrogen receptor (Homo sapiens, UniProt Q92731+P03372)
Assay: Inhibition of estradiol induced estrogen receptor transcriptional activation in MCF-7-2a cells
Type: functional, cell-based
For each record, check the reported IC50: if it is below 70 nM write 1, else write -1.

Use the examples below as a reference point.
[[record]]
sample_smiles = "CCC(=C(c1ccc(O)cc1)c1ccc(O)cc1)c1ccc(O)cc1"
class_assignment = 1

[[record]]
sample_smiles = "CCCCC(=C(c1ccc(O)cc1)c1ccc(O)cc1)c1ccc(O)cc1"
class_assignment = -1

[[record]]
sample_smiles = "CC(=C(c1ccc(O)cc1)c1ccc(O)cc1)c1ccc(O)cc1"
class_assignment = 1


Please state whether IC50 is below 70 nM for "Oc1ccc(C=C(c2ccc(O)cc2)c2ccc(O)cc2)cc1"
-1
